Origin of the recorded values: the RNAGym collection of RNA variant scans (doi:10.7554/elife.80360)

Examples of variants with documented self-cleavage follow.
B1: CPEB3 Ribozyme (parent)
chain: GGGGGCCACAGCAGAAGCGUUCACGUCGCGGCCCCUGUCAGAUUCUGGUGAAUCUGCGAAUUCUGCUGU

variants of: B1; assay: self-cleavage, relative activity (ratio to wild type); higher = more cleavage; co-transcriptional
READOUT: self-cleavage

# VARIANT_CODE, READOUT, REPORTED_MEASUREMENT
rows = [
    ("G47A U61G", "self-cleavage", 0.968),
    ("A23G G37U", "self-cleavage", 0.22),
    ("G30U U44A", "self-cleavage", 0.248),
    ("G1U G30C", "self-cleavage", 0.0755),
    ("A10U G11U", "self-cleavage", 0.908),
    ("C12A A23U", "self-cleavage", 0.742),
    ("U21A C39G", "self-cleavage", 0.981),
    ("G1U A8U", "self-cleavage", 0.0804),
    ("G1U A52U", "self-cleavage", 0.129),
    ("G3A G14C", "self-cleavage", 0.159),
    ("A40U U55C", "self-cleavage", 0.828),
    ("C6U G30A", "self-cleavage", 0.632),
    ("G1C C57G", "self-cleavage", 0.104),
    ("A13G G31U", "self-cleavage", 0.555),
    ("U36G U53C", "self-cleavage", 0.267),
    ("A23U G47A", "self-cleavage", 1.02),
    ("G41A U55A", "self-cleavage", 0.596),
    ("G5A C45A", "self-cleavage", 0.832),
    ("C6G U62A", "self-cleavage", 0.129),
    ("G1U U64C", "self-cleavage", 0.0613),
    ("G1U G31A", "self-cleavage", 0.0918),
    ("G5A G37C", "self-cleavage", 0.171),
    ("U53G U69C", "self-cleavage", 1.04),
    ("U53A U62G", "self-cleavage", 0.74),
    ("A23G U64A", "self-cleavage", 0.753),
    ("G31C U36G", "self-cleavage", 0.475),
    ("C18U U69C", "self-cleavage", 1.04),
    ("A8G U49A", "self-cleavage", 0.938),
    ("G4A U21C", "self-cleavage", 0.465),
    ("A13C U36C", "self-cleavage", 0.62),
    ("C39G A42C", "self-cleavage", 0.553),
    ("A15C G65A", "self-cleavage", 0.43),
    ("A23C G28C", "self-cleavage", 0.183),
    ("A51U U64A", "self-cleavage", 0.799),
    ("A40C U53G", "self-cleavage", 0.15),
    ("C6A G68U", "self-cleavage", 0.939),
    ("A13G G14C", "self-cleavage", 0.255),
    ("C39A U62A", "self-cleavage", 0.549),
    ("G1U C27A", "self-cleavage", 0.0657),
    ("A13G G50C", "self-cleavage", 0.881),
    ("U36C C54G", "self-cleavage", 0.765),
    ("G4C G48U", "self-cleavage", 0.755),
    ("G2C G3C", "self-cleavage", 0.0247),
    ("U61G G65U", "self-cleavage", 0.483),
    ("U21C G25U", "self-cleavage", 0.13),
    ("G31A G56A", "self-cleavage", 0.702),
    ("U20G C24G", "self-cleavage", 0.146),
    ("G1C G50U", "self-cleavage", 0.169),
    ("A10U G65C", "self-cleavage", 0.627),
    ("G17C C54G", "self-cleavage", 0.166),
    ("A52C C57G", "self-cleavage", 0.26),
    ("G30U G41A", "self-cleavage", 0.216),
    ("C22G U44C", "self-cleavage", 0.22),
    ("A13U C57U", "self-cleavage", 0.308),
    ("C35A C66A", "self-cleavage", 0.22),
    ("G47C U62G", "self-cleavage", 0.901),
    ("G5A A8G", "self-cleavage", 0.725),
    ("G25U G47C", "self-cleavage", 0.11),
    ("G4A C66U", "self-cleavage", 0.852),
    ("C7U A10U", "self-cleavage", 0.981),
    ("G25A U36A", "self-cleavage", 0.184),
    ("G17A G25C", "self-cleavage", 0.147),
    ("U43A U55A", "self-cleavage", 0.257),
    ("C45G U64G", "self-cleavage", 0.739),
    ("A23U C27A", "self-cleavage", 0.734),
    ("U20A U44C", "self-cleavage", 0.139),
    ("A13C G68A", "self-cleavage", 0.921),
    ("C22G G31U", "self-cleavage", 0.178),
    ("C32A U46G", "self-cleavage", 0.729),
    ("C24U A40U", "self-cleavage", 0.317),
    ("G3C A59C", "self-cleavage", 0.0244),
    ("U20A G25C", "self-cleavage", 0.165),
    ("U46C C63A", "self-cleavage", 0.771),
    ("C24U C27U", "self-cleavage", 0.193),
    ("C39U C45U", "self-cleavage", 0.862),
    ("C12U U64G", "self-cleavage", 0.757),
]
